test: chemical genetic growth profiling, strain panel (AID 1159580);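 note: tested at 20 µM; growth read once vehicle control cultures reached saturation at 30 °C; 1 = growth at the plate median or of vehicle wells; lower values mean less growth of the strain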; details: S. cerevisiae deletion strains, growth OD, locus YAL026C, strain drs2
About 2,000 (36%) of roughly 5,500 compounds were called active. Another 18% or so got no clear call; they are omitted. Cut-off read from the data, not from the text of the source: active = normalized growth mostly below about 0.91 (no sharp cut-off); inconclusive = no clear call, values can overlap the other calls; inactive = mostly above about 0.92. Some of the results follow.
Outcomes: 1 = active, -1 = inactive

INSERT INTO measurements (compound, label_value) VALUES
  ('COc1c2ccoc2cc2oc(C)cc(=O)c12', -1),
  ('COc1c2occc2c(OC)c2c(=O)cc(C)oc12', -1),
  ('COc1ccc2c(=O)ccoc2c1', -1),
  ('CC(=O)CC1CCCCN1 (configuration not stated)', -1),
  ('CC1(C)C=Cc2cc3ccc(=O)oc3cc2O1', -1),
  ('C1CCC(C(CC2CCCCN2)C2CCCCC2)CC1 (configuration not stated)', 1),
  ('CC1=NN(c2ccccc2)C(=O)C1', -1);
